Source listed as PubChem BioAssay (NCI).

The entries below come with measured TGI values attached.
- Test system: MALME-3M melanoma
- procedure details: NCI tumour cell line growth inhibition, 48 h

The examples below pair each entry with its known result.
{"molecule": "Cc1c(/C=N/NC(=O)c2ccc(Cl)cc2)c(=O)n(-c2ccccc2)n1C", "measurement label": "TGI", "val": "> 100 µM"}
{"molecule": "Cc1cc(C2CC(O)C(CO)O2)c(F)cc1F (centres undefined)", "measurement label": "TGI", "val": "> 100 µM"}
{"molecule": "CC1COC(C)(C)P(=O)(c2ccccc2)C1 (centres undefined)", "measurement label": "TGI", "val": "> 100 µM"}
{"molecule": "COc1cc(OC)c(/C=C/c2c3ccccc3cc[n+]2C)c(OC)c1", "measurement label": "TGI", "val": "15.4 µM"}
{"molecule": "Cc1nc(-[n+]2nc(-c3ccncc3)nn2-c2ccccc2)sc1C", "measurement label": "TGI", "val": "> 100 µM"}
{"molecule": "O=S(=O)(Nc1ccc(F)cc1F)c1ccc(-c2cnc(C3CC3)o2)cc1", "measurement label": "TGI", "val": "34.2 µM"}
{"molecule": "CC(C(=O)OCc1ccccc1)(c1ccco1)N1C(=O)OC(c2ccccc2)C1c1ccccc1 (centres undefined)", "measurement label": "TGI", "val": "> 100 µM"}
{"molecule": "CC1C[C@]2(C)C(=NCCN)Nc3ccccc3[C@@H]2N(C)c2ccccc21 (some centres undefined)", "measurement label": "TGI", "val": "9.64 µM"}

Now turn to the next molecule.
Enquiry: Requested read-out: TGI. Entry: COc1ccc(-n2cnn3c(=O)c4cn[nH]c4nc23)cc1
Return: > 10 µM
